meta.source: ChEMBL document CHEMBL1671777

target: Adenosylhomocysteinase (Homo sapiens, UniProt P23526)
Sequence (P23526 whole entry): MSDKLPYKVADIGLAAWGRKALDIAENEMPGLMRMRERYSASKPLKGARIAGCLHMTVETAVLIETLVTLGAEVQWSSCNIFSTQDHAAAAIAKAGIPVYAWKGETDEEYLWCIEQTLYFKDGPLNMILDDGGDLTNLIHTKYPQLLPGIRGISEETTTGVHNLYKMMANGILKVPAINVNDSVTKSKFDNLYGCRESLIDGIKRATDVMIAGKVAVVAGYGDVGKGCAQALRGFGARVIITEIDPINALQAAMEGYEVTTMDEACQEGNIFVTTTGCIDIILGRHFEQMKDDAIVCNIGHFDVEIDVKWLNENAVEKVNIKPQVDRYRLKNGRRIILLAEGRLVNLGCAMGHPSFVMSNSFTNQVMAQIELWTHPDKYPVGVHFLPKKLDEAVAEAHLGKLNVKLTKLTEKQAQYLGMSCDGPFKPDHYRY
readout.label: IC50 (µM)

Below, 2 compounds whose answers are already recorded.
{"molecule": "Nc1ncnc2c1ncn2[C@@H]1C(Br)=C(CO)[C@@H](O)[C@H]1O", "target.system": "Adenosylhomocysteinase (Homo sapiens, UniProt P23526)", "readout.label": "IC50", "unit.abbrev": "µM", "assay.value": 60.2}
{"molecule": "Nc1ncnc2c1ncn2[C@@H]1C=C[C@@H](O)[C@H]1O", "target.system": "Adenosylhomocysteinase (Homo sapiens, UniProt P23526)", "readout.label": "IC50", "unit.abbrev": "µM", "assay.value": 5.83}

[P] Nc1ncnc2c1ncn2[C@@H]1C=C(CO)[C@@H](O)[C@H]1O
[Q] Nc1ncnc2c1ncn2[C@@H]1C(Cl)=C(CO)[C@@H](O)[C@H]1O
[R] Nc1ncnc2c1ncn2[C@@H]1C(F)=C[C@@H](O)[C@H]1O
// sort entries: IC50, high to low Reply with the labels, ordered as the question asks.
Q, R, P
(Q: 36.5 µM, R: 7.67 µM, P: 0.87 µM)
